// provenance: PubChem BioAssay AID1159580

# assay.protocol: chemical genetic growth profiling, strain panel (AID 1159580);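 further: tested at 20 µM; growth read once vehicle control cultures reached saturation at 30 °C; 1 = growth at the plate median or of vehicle wells; lower values mean less growth of the strain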
# stated.conditions: S. cerevisiae deletion strains, growth OD, locus YJL092W, strain hpr5, active compounds read low
Screen size: about 5,500 compounds; about 2,000 (36%) were called active. Inconclusive results (about 18%) are left out. Some of the results follow.
// reported normalized growth for each item listed
measure: normalized growth

{"molecule": "CN1CCCN=C1COC(=O)C(O)(c1ccccc1)C1CCCCC1 (configuration not stated)", "measure": "normalized growth", "result.value": 0.997}
{"molecule": "CC(NCCc1ccc(O)cc1)C(O)c1ccc(O)cc1 (configuration not stated)", "measure": "normalized growth", "result.value": 0.973}
{"molecule": "CC(=O)OCC[N+](C)(C)C", "measure": "normalized growth", "result.value": 1.02}
{"molecule": "CC(C[N+](C)(C)C)OC(N)=O (configuration not stated)", "measure": "normalized growth", "result.value": 1.02}
{"molecule": "CC(C)OC(=O)C(C)(C)Oc1ccc(C(=O)c2ccc(Cl)cc2)cc1", "measure": "normalized growth", "result.value": 0.975}
{"molecule": "CC(=O)OCC(=O)[C@H]1CCC2C3CCC4=CC(=O)CC[C@]4(C)C3CC[C@@]21C (some centres not stated)", "measure": "normalized growth", "result.value": 0.976}
{"molecule": "COc1ccc2cc([C@H](C)C(=O)O)ccc2c1", "measure": "normalized growth", "result.value": 0.959}
{"molecule": "c1cncc(C2CCCCN2)c1 (configuration not stated)", "measure": "normalized growth", "result.value": 0.995}
{"molecule": "CC1=C(CC(=O)O)c2cc(F)ccc2/C1=C\\c1ccc(S(C)=O)cc1 (configuration not stated)", "measure": "normalized growth", "result.value": 1.02}
{"molecule": "CN[C@@H](C)[C@@H](O)c1ccccc1", "measure": "normalized growth", "result.value": 0.999}
{"molecule": "C[N+](C)(C)CCOC(N)=O", "measure": "normalized growth", "result.value": 1.01}
{"molecule": "CC(=O)OCC(=O)[C@@]1(O)CCC2C3CCC4=CC(=O)CC[C@]4(C)C3C(=O)C[C@@]21C (some centres not stated)", "measure": "normalized growth", "result.value": 0.968}
{"molecule": "CCCCCCCCCCCCCCCC(=O)OC/C=C(C)/C=C/C=C(C)/C=C/C1=C(C)CCCC1(C)C", "measure": "normalized growth", "result.value": 1.02}
{"molecule": "CCOC(=O)C(C)(C)Oc1ccc(Cl)cc1", "measure": "normalized growth", "result.value": 0.978}
{"molecule": "COc1ccc(OC)c(C(O)C(C)N)c1 (configuration not stated)", "measure": "normalized growth", "result.value": 0.997}
{"molecule": "CC(C(=O)O)c1ccc(-c2ccccc2)c(F)c1 (configuration not stated)", "measure": "normalized growth", "result.value": 0.99}
{"molecule": "CC1=C(/C=C/C(C)=C/C=C/C(C)=C/C=C/C=C(C)/C=C/C=C(C)/C=C/C2=C(C)C(=O)C(O)CC2(C)C)C(C)(C)CC(O)C1=O (configuration not stated)", "measure": "normalized growth", "result.value": 1.07}

###

# assay.protocol: chemical genetic growth profiling, strain panel (AID 1159580);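 further: tested at 20 µM; growth read once vehicle control cultures reached saturation at 30 °C; 1 = growth at the plate median or of vehicle wells; lower values mean less growth of the strain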
# stated.conditions: S. cerevisiae deletion strains, growth OD, locus YDR162C, strain NBP2, active compounds read low
The campaign covered roughly 5,500 compounds. About 2,000 (36%) were called active. Inconclusive results (about 18%) are left out. This is one part of the list.
Quick list: normalized growth per entry.

{"compound.structure": "O=C(O)c1cc2ccccc2[nH]1", "normalized growth": 1.04}
{"compound.structure": "COc1cc2c(cc1OC)[C@@H]1C(=O)c3ccc4c(c3O[C@@H]1CO2)C=CC(C)(C)O4", "normalized growth": 1.01}
{"compound.structure": "CNCCc1ccccn1", "normalized growth": 1.01}
{"compound.structure": "COc1cc2c(cc1OC)[C@@H]1C(=O)c3ccc4oc(C(C)C)cc4c3O[C@@H]1CO2", "normalized growth": 1.04}
{"compound.structure": "COc1cc2c(cc1OC)[C@@H]1C(=O)c3ccc(O)c(CC=C(C)C)c3O[C@@H]1CO2", "normalized growth": 0.978}
{"compound.structure": "COc1cc2c(cc1OC)[C@@H]1C(=O)c3ccc(OC)c(CC=C(C)C)c3O[C@@H]1CO2", "normalized growth": 1.01}
